Data credit: PubChem BioAssay (NCI)

- Test system: UACC-257 melanoma
- Assay remarks: NCI tumour cell line growth inhibition, 48 h; in the data active = GI50 below about 0.43 µM; inactive = the rest
Outcome codes: t for active, f for inactive

> print(dat)
                                    compound  class.label
 1  CC(C)c1nc(CN(C)C(=O)N[C@H](C(=O)N[C@@H](Cc2ccccc2)C[C@H](O)[C@H](Cc2ccccc2)NC(=O)OCc2cncs2)C(C)C)cs1            f
 2  COc1cc([N+](=O)[O-])cc2c3c(n(C)c12)[C@@]1(C)CCC2c4ccc(OCc5ccccc5)cc4CCC2C1C3 (some centres not stated)            f
 3  CC(C)(C)OC(=O)N1CCc2c(sc3ncnc(N/N=C/c4cccc5ccccc45)c23)C1            f
 4                       O=c1[nH]ncc(Br)c1Br            f
 5  [Cl-].[Dy+3].[O-]/N=C(\c1ccccc1)c1ccccn1.[O-]/N=C(\c1ccccc1)c1ccccn1.[O-]/N=C(\c1ccccc1)c1ccccn1            f
 6  N#Cc1ccc(O)c(C2=NCC(c3cccc(Oc4ccccc4)c3)O2)c1 (configuration not stated)            f
 7  CC(=O)OC[C@]1(C)C=C2C(=O)[C@](C)(O)C3(CC3)C(C)=C2[C@H]1O            t
 8  Cc1ccc(NC(=O)c2cccc(N(C)C)c2)cc1NC(=O)c1ccc(O)cc1            f
 9  CC1=CC(=Nc2ccc(N(CCCl)CCCl)cc2)C=C(C)C1=O            f
10  COc1cc(C2=NOC(c3cc(OC)c(OC)c(OC)c3)C2)ccc1OCCCCOc1cc2c(cc1OC)C(=O)N1CCC[C@H]1C=N2 (some centres not stated)            t
11  CC1(C)OC2[C@@H](CNC(=O)NC(=O)NC(=O)CI)O[C@@H](n3cnc4c(NC(=O)Nc5ccccc5)ncnc43)[C@H]2O1 (some centres not stated)            f
12  COc1ccc(-c2cnnc3c(-c4cccc(C(F)(F)F)c4)cnn23)cc1            f
